- Tested system: CYP3A4 (Homo sapiens (Human), UniProt P08684)
- Sequence (P08684 whole entry): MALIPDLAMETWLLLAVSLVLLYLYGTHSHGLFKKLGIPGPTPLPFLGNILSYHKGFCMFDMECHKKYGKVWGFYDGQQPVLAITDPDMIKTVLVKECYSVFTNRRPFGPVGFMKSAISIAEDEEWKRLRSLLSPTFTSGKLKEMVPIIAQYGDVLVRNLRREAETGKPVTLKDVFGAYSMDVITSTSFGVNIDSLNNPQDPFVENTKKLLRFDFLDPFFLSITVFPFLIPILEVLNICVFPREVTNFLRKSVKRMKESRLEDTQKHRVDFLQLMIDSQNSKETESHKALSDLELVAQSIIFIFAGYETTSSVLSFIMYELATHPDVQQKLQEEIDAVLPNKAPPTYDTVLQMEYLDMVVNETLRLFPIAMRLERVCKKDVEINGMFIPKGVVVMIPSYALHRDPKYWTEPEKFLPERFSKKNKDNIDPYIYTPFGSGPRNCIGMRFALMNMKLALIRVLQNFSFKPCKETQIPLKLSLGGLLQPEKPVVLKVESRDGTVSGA
- Assay text: CYP inhibitory activity
- Type: in vitro ADME
- Conditions used: read-out: CYP % activity at 10 μM concentration 3A4
Assay readout: activity at 10 µM (%)
Give a bare numeral; the unit % is implied.

Using the record for CCn1cnc2c(NCc3ccc(-c4ccnc(C)c4)nc3)nc(-c3cnc(N)nc3)nc21 , report its activity at 10 µM. 72.4

Using the record for CCn1cnc2c(NCc3ccc(-c4ccnc(C)c4)nc3)nc(-c3ccc(N)nc3)nc21 , report its activity at 10 µM. 38.9

Using the record for CCn1cnc2c(NCc3ccc(-c4ccccn4)nc3)nc(-c3ccc(N)nc3)nc21 , report its activity at 10 µM. 43

Using the record for CCn1cnc2c(NCc3ccc(-c4ccccn4)nc3)nc(-c3cnc(N)nc3)nc21 , report its activity at 10 µM. 92.8

Using the record for CCn1cnc2c(NCc3ccc(-c4ccnc(C)c4)nc3)nc(-c3cncnc3)nc21 , report its activity at 10 µM. 31.8

---

- Tested system: CDK12/CyclinK (Homo sapiens (Human))
- Sequence (Q9NYV4 whole entry): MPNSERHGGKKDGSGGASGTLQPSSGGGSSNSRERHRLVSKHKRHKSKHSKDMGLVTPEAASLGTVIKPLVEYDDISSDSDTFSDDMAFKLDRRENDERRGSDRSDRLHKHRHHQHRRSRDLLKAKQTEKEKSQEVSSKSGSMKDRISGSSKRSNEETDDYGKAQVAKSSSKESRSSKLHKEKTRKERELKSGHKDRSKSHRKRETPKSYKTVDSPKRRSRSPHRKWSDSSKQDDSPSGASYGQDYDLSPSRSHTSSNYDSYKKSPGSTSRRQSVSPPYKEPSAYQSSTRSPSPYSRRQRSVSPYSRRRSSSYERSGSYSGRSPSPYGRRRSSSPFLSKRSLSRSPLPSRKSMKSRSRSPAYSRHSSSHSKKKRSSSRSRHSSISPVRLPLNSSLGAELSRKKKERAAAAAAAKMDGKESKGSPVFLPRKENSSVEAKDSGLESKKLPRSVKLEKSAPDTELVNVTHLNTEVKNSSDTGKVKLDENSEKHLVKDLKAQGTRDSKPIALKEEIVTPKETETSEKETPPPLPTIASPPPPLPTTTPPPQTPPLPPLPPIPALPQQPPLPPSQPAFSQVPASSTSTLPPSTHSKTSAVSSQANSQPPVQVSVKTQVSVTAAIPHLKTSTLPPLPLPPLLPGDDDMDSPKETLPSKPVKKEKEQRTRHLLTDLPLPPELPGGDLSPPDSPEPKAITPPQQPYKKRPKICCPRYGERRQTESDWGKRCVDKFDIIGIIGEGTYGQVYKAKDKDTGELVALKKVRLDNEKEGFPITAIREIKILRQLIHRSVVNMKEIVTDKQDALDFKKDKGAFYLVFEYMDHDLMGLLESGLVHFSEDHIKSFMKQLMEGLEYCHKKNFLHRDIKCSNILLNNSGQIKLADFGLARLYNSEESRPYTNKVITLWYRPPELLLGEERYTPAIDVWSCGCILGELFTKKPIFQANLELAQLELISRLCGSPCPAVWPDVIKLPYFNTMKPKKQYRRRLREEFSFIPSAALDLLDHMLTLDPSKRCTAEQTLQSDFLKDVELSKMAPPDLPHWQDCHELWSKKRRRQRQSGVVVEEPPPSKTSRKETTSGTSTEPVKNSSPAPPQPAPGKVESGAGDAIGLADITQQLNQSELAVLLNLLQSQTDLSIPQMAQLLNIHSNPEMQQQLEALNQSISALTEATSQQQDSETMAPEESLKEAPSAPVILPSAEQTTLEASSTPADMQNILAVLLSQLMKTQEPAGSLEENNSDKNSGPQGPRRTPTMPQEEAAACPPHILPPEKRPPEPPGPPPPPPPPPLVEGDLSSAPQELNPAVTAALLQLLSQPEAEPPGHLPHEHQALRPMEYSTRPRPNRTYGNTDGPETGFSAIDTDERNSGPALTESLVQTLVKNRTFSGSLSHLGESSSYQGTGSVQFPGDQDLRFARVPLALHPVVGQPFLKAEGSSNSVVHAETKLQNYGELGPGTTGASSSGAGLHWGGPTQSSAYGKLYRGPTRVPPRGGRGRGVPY
- Sequence (O75909 whole entry partner): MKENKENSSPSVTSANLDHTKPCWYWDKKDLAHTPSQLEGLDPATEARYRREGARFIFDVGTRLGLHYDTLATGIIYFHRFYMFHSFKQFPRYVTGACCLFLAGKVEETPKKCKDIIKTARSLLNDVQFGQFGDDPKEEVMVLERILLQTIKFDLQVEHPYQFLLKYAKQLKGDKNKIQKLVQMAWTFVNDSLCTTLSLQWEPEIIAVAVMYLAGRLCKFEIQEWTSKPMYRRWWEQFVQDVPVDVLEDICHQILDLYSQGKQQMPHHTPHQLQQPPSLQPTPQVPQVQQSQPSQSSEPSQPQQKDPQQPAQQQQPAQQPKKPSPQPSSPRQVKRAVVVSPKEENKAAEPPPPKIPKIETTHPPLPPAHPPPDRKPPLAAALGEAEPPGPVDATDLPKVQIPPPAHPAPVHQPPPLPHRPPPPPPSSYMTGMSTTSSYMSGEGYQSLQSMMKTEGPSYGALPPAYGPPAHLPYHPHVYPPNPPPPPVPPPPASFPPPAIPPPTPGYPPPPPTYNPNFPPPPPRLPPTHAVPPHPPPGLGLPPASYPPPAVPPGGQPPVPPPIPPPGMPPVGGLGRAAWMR
- Assay text: CDK12/cyclinK enzyme activity
- Format: biochemical
- Conditions used: in vitro
Provide the recorded IC50 for the entries that follow.
Give a bare numeral; the unit µM is implied.

Notebook entry, CDK12/CyclinK (Homo sapiens (Human)) assay: IC50 of CC(C)n1cnc2c(NCc3ccc(-c4cccnc4)nc3)nc(-n3cc(CO)nn3)nc21 [Example 41] = ? 2.05

Notebook entry, CDK12/CyclinK (Homo sapiens (Human)) assay: IC50 of CC(C)n1cnc2c(NCc3ccc(-c4cccnc4)nc3)nc(-c3ccc(F)nc3)nc21 [Example 28] = ? 0.147

Notebook entry, CDK12/CyclinK (Homo sapiens (Human)) assay: IC50 of CC(C)n1cnc2c(NCc3ccc(-c4cccnc4)nc3)nc(-c3ccc(NCCO)nc3)nc21 [Example 35] = ? 0.053

Notebook entry, CDK12/CyclinK (Homo sapiens (Human)) assay: IC50 of CC(C)n1cnc2c(NCc3ccc(-c4cccnc4)nc3)nc(-c3ccccc3N)nc21 [Example 25] = ? 0.619

Notebook entry, CDK12/CyclinK (Homo sapiens (Human)) assay: IC50 of CC(C)n1cnc2c(NCc3ccc(-c4cccnc4)nc3)nc(-c3cccnc3)nc21 [Example 6] = ? 0.221

Notebook entry, CDK12/CyclinK (Homo sapiens (Human)) assay: IC50 of CC(C)n1cnc2c(NCc3ccc(-c4ccncc4)nc3)nc(-c3cccnc3)nc21 [Example 7] = ? 0.153

Notebook entry, CDK12/CyclinK (Homo sapiens (Human)) assay: IC50 of COc1cncc(-c2nc(NCc3ccc(-c4ccccn4)cn3)c3ncn(C(C)C)c3n2)c1 [Example 44] = ? 1.53

---

- Tested system: UniProt P33261
- Sequence (P33261 whole entry): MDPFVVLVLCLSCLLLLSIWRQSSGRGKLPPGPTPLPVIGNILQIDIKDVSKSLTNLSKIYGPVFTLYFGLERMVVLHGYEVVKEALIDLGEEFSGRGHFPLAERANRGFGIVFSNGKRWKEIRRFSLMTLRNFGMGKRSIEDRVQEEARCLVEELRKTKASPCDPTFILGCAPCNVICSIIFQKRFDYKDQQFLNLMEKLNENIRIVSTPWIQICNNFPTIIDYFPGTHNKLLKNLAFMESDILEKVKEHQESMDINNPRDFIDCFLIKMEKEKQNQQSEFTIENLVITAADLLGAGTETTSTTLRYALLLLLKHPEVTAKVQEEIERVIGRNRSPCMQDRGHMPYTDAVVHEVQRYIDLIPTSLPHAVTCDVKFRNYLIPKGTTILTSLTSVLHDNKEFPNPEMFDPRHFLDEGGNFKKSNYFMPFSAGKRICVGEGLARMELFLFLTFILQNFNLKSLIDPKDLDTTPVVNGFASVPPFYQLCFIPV
- Assay text: CYP inhibitory activity
- Format: in vitro ADME
- Conditions used: read-out: CYP % activity at 10 μM concentration 2C19
- Protocol: 5 derivatives were evaluated for in vitro metabolic stability in liver microsomes from three different species (human, dog, mouse) and for inhibitory activity against 5 representative cytochrome P450 enzymes (CYPs)(Table 3). In terms of liver microsomal stability, the 2′-pyridyl group is more suitable than the α-methyl-4′-pyridyl group as the terminal aromatic group at position 6, and the aminopyrimidyl group is better than the aminopyridyl group as a substituent at position 2.
Provide the recorded activity at 10 µM for the entries that follow.
Give a bare numeral; the unit % is implied.

Using the record for CCn1cnc2c(NCc3ccc(-c4ccccn4)nc3)nc(-c3cnc(N)nc3)nc21 , report its activity at 10 µM. 72.6

Using the record for CCn1cnc2c(NCc3ccc(-c4ccccn4)nc3)nc(-c3ccc(N)nc3)nc21 , report its activity at 10 µM. 68.1

Using the record for CCn1cnc2c(NCc3ccc(-c4ccnc(C)c4)nc3)nc(-c3cnc(N)nc3)nc21 , report its activity at 10 µM. 75.4

Using the record for CCn1cnc2c(NCc3ccc(-c4ccnc(C)c4)nc3)nc(-c3ccc(N)nc3)nc21 , report its activity at 10 µM. 76.8

Using the record for CCn1cnc2c(NCc3ccc(-c4ccnc(C)c4)nc3)nc(-c3cncnc3)nc21 , report its activity at 10 µM. 73.9

---

- Assay text: Liver microsomal metabolic stability
- Type: in vitro ADME
- Conditions used: human liver microsomes
Provide the recorded Liver microsomal metabolic stability (% remaining amount) Human for the entries that follow.
Give a bare numeral; the unit % is implied.

Using the record for CCn1cnc2c(NCc3ccc(-c4ccnc(C)c4)nc3)nc(-c3cnc(N)nc3)nc21 , report its Liver microsomal metabolic stability (% remaining amount) Human. 40.6

Using the record for CCn1cnc2c(NCc3ccc(-c4ccccn4)nc3)nc(-c3cnc(N)nc3)nc21 , report its Liver microsomal metabolic stability (% remaining amount) Human. 100

Using the record for CCn1cnc2c(NCc3ccc(-c4ccnc(C)c4)nc3)nc(-c3cncnc3)nc21 , report its Liver microsomal metabolic stability (% remaining amount) Human. 27.3

Using the record for CCn1cnc2c(NCc3ccc(-c4ccnc(C)c4)nc3)nc(-c3ccc(N)nc3)nc21 , report its Liver microsomal metabolic stability (% remaining amount) Human. 32.2

Using the record for CCn1cnc2c(NCc3ccc(-c4ccccn4)nc3)nc(-c3ccc(N)nc3)nc21 , report its Liver microsomal metabolic stability (% remaining amount) Human. 64.8

---

Provide the recorded activity at 10 µM for the entries that follow.
- Tested system: CYP2C9 (Homo sapiens (Human), UniProt P11712)
- Sequence (P11712 whole entry): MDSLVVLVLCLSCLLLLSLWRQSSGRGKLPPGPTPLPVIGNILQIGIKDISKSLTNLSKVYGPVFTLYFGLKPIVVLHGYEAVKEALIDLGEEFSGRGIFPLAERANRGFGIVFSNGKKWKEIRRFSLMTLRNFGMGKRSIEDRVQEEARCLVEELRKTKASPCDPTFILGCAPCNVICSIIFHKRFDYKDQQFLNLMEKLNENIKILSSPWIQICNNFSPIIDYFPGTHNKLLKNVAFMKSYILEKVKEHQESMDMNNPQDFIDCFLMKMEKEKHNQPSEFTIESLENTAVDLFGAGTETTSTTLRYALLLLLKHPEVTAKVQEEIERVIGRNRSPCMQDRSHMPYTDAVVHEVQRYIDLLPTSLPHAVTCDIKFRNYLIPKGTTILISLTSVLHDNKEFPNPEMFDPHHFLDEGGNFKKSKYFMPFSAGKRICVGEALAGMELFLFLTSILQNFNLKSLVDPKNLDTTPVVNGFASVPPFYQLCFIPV
- Assay text: CYP inhibitory activity
- Assay type: in vitro ADME
- Conditions used: read-out: CYP % activity at 10 μM concentration 2C9
Give a bare numeral; the unit % is implied.

Using the record for CCn1cnc2c(NCc3ccc(-c4ccnc(C)c4)nc3)nc(-c3cncnc3)nc21 [Example 51] , report its activity at 10 µM. 67.5

Using the record for CCn1cnc2c(NCc3ccc(-c4ccccn4)nc3)nc(-c3cnc(N)nc3)nc21 [Example 54] , report its activity at 10 µM. 81.6

Using the record for CCn1cnc2c(NCc3ccc(-c4ccnc(C)c4)nc3)nc(-c3ccc(N)nc3)nc21 [Example 49] , report its activity at 10 µM. 73

Using the record for CCn1cnc2c(NCc3ccc(-c4ccnc(C)c4)nc3)nc(-c3cnc(N)nc3)nc21 [Example 50] , report its activity at 10 µM. 82.9

Using the record for CCn1cnc2c(NCc3ccc(-c4ccccn4)nc3)nc(-c3ccc(N)nc3)nc21 [Example 53] , report its activity at 10 µM. 57.9

---

- Tested system: CDK12/CyclinK (Homo sapiens (Human))
- Assay text: CDK12/cyclinK enzyme activity
- Format: biochemical
- Conditions used: in vitro
Assay readout: IC50 (µM)
Give a bare numeral; the unit µM is implied.

Using the record for CCn1cnc2c(NCc3ccc(-c4cccnc4)nc3)nc(-c3cccnc3)nc21 , report its IC50. 0.016

Using the record for CC(C)n1cnc2c(NCc3ccc(-c4cccnc4)nc3)nc(-c3cccc(NCCCO)c3)nc21 , report its IC50. 0.257

Using the record for CC(C)n1cnc2c(NCc3ccc(-c4ccncc4)cn3)nc(-c3cccnc3)nc21 , report its IC50. 0.627

Using the record for CC(C)n1cnc2c(NCc3ccc(-c4cccnc4)nc3)nc(-c3ccc4[nH]ccc4c3)nc21 , report its IC50. 0.155

Using the record for CC(C)n1cnc2c(NCc3ccc(-c4cccnc4)nc3)nc(-c3cncnc3)nc21 , report its IC50. 0.051

Using the record for CC(C)n1cnc2c(NCc3ccc(-c4cccnc4)nc3)nc(-c3cccc(C(N)=O)c3)nc21 , report its IC50. 0.504

Using the record for CC(C)n1cnc2c(NCc3ccc(-c4ccccn4)cn3)nc(-c3cccnc3)nc21 , report its IC50. 0.433

Using the record for CC(C)n1cnc2c(NCc3ccc(-c4cccnc4)nc3)nc(-c3ccc(NCCCO)cc3)nc21 , report its IC50. 0.499

Using the record for CC(C)n1cnc2c(NCc3ccc(-c4cccnc4)nc3)nc(-c3ccn[nH]3)nc21 , report its IC50. 0.501

Using the record for CC(C)n1cnc2c(NCc3ccc(-c4cccnc4)nc3)nc(-c3cnc(N)nc3)nc21 , report its IC50. 0.087

Using the record for CCn1cnc2c(NCc3ccc(-c4ccnc(C)c4)nc3)nc(-c3ccc(N)nc3)nc21 , report its IC50. 0.012

Using the record for CC(C)n1cnc2c(NCc3ccc(-c4cccnc4)nc3)nc(-c3cccc(N)c3)nc21 , report its IC50. 0.17

Using the record for c1cncc(-c2ccc(CNc3nc(-c4cccnc4)nc4c3ncn4C3CCCC3)cn2)c1 , report its IC50. 0.293

Using the record for CC(C)n1cnc2c(NCc3ccc(-c4cccnc4)nc3)nc(-c3ccnc(F)c3)nc21 , report its IC50. 0.164

Using the record for CN(C)C/C=C/C(=O)Nc1ccc(C(=O)N2CCC[C@@H](Nc3ncc(Cl)c(-c4c[nH]c5ccccc45)n3)C2)cc1 [THZ531, reference compound] , report its IC50. 0.05

Using the record for CC(C)n1cnc2c(NCc3ccc(-c4cccnc4)nc3)nc(-c3ccccc3NCCO)nc21 , report its IC50. 0.799

Using the record for CC(C)n1cnc2c(NCc3ccc(-c4cccnc4)nc3)nc(-c3ccc(NCCCO)nc3)nc21 , report its IC50. 0.304

Using the record for Cc1ccc(-c2ccc(CNc3nc(-c4cccnc4)nc4c3ncn4C(C)C)nc2)cn1 , report its IC50. 1.11

Using the record for CC(C)n1cnc2c(NCc3ccc(-c4cccnc4)nc3)nc(-c3ccccc3NCCCO)nc21 , report its IC50. 3.01

Using the record for CC(C)n1cnc2c(NCc3ccc(-c4cccnc4)nc3)nc(-c3ccnc(NCCO)c3)nc21 , report its IC50. 0.086

Using the record for CC(C)n1cnc2c(NCc3ccc(-c4cccnc4)nc3)nc(-c3ccc(N)nc3)nc21 , report its IC50. 0.065

Using the record for Cc1cc(N)n(-c2nc(NCc3ccc(-c4cccnc4)nc3)c3ncn(C(C)C)c3n2)n1 , report its IC50. 2.35

Using the record for CC(C)n1cnc2c(NCc3ccc(-c4cccnc4)cn3)nc(-c3cccnc3)nc21 , report its IC50. 0.582
